Values from patent US20250270315A1

- study_target: T1, human SIRPβ stably expressed on CHOK1 cells (human, UniProt O00241 30-398)
- T1 construct: whole, on cells; also called CHOK1-human SIRPB; CHOK1-hSIRPβ
- T1 sequence (O00241 30-398): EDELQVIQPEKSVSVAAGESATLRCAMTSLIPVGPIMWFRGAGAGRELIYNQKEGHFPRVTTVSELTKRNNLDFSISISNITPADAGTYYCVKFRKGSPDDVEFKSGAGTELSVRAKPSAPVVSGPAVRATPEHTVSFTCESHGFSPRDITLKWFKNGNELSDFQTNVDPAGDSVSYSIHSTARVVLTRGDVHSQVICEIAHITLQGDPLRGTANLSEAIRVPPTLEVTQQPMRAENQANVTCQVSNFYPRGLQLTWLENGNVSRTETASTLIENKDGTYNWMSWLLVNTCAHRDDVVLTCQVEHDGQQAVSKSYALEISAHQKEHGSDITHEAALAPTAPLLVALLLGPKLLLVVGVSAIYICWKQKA
- test_protocol: FACS, CHOK1-hSIRPβ cells
- From the text: Binding activity of the purified chimeric antibodies against SIRPβ and SIRPBI was detected by ELISA assay using recombinant proteins of human SIRPβ ECD (FIGS. 3A and 3B), human SIRPBI ECD (FIGS. 3D and 3E) and FACS assay using CHOK 1 cells stably expressing human SIRPB (FIG. 3C).

binder	EC50
025c (antibody, V domains shown, also called chimeric antibody 025c; parental antibody of 025c) VH: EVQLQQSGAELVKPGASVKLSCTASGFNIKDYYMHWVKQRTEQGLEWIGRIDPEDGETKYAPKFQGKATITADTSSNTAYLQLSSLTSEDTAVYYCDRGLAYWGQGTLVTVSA VL: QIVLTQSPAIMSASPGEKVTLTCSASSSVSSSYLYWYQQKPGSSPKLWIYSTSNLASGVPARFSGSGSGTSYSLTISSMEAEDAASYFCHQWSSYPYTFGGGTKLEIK	0.38 nM
042c (antibody, V domains shown, also called chimeric antibody 042c) VH: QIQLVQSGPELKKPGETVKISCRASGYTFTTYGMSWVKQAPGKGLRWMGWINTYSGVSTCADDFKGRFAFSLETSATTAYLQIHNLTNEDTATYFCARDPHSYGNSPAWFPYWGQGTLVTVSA VL: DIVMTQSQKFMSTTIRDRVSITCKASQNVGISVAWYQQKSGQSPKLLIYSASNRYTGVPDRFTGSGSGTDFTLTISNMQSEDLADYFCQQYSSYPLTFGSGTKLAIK	39.8 nM
hu1H9G4 (antibody, V domains shown) VH: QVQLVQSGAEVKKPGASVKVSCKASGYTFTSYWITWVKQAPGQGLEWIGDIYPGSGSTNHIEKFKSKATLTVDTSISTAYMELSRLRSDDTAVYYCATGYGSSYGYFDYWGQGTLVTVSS VL: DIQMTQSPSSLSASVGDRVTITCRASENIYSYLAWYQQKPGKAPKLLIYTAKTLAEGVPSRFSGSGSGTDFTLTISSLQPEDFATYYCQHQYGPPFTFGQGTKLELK	0.3 nM
